Biological target: hNAMPT protein (Homo sapiens (Human))
Sequence (P43490 whole entry): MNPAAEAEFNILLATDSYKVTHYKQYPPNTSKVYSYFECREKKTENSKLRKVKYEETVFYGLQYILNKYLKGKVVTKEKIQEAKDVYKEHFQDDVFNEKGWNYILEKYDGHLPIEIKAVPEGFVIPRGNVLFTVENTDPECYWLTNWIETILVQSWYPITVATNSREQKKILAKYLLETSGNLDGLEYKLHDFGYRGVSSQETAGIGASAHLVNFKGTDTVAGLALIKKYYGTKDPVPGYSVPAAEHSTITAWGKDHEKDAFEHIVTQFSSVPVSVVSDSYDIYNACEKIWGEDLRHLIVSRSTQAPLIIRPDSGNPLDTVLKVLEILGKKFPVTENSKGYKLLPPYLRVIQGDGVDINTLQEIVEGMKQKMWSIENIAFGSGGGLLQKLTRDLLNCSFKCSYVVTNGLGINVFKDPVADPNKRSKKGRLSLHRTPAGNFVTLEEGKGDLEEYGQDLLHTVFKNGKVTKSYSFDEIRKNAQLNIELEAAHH
Assay: NAMPT enzyme assay (TR-FRET/HTRF, BodiPY ligand, anti 6His-Tb)
Type: binding
Conditions: compound concentration 1 μM; read-out: Percent Inhibition
We'd kindly ask you to apply these inhibition at 1 µM classes: bottom range = under 50%, center range = from 50% up to 80%, top range = 80% and over

Some solved entries appear below for comparison.
# molecule, cat
rows = [
    ("O=C(c1ccc2nc(-c3ccc(F)cc3)c(-c3ccc(F)cc3)nc2c1)N1CCC(c2ncccn2)C1 (stereo not shown) [Compound I-294]", "bottom range"),
    ("O=C(NCCCc1cn[nH]c1)c1ccc2nc(N3CCOCC3)c(-c3ccc(F)cc3)nc2c1 [Compound I-297]", "top range"),
    ("O=C(c1ccc2nc(-c3ccc(F)cc3)c(-c3ccc(F)cc3)nc2c1)N1CCn2nncc2C1 [Compound I-28]", "bottom range"),
    ("O=C(NCCCn1ccnc1)c1ccc2nc(-c3ccccc3)c(-c3cccc(OC(F)(F)F)c3)nc2c1 [Compound I-95]", "center range"),
    ("O=C(NCCCc1ncc[nH]1)c1ccc2nc(OCc3ccsc3)c(-c3ccc(F)cc3)nc2c1 [Compound I-326]", "top range"),
]

Data request: Please classify: O=C(NCCCn1ccnc1)c1ccc2nc(-c3ccccc3)c(-c3ccc4c(c3)CCO4)nc2c1 [Compound I-252]
Data returned: center range

Data request: Please classify: COc1cccc(-c2nc3cc(C(=O)NCCCc4cccnc4)ccc3nc2N2CCC(N3CCOCC3)CC2)c1 [Compound I-70]
Data returned: top range

Data request: Please classify: CC(=O)Nc1ccccc1-c1nc2cc(C(=O)NCCCn3ccnc3)ccc2nc1-c1ccccc1 [Compound I-135]
Data returned: bottom range

Data request: Please classify: N#Cc1cccc(-c2nc3ccc(C(=O)NCCCn4ccnc4)cc3nc2-c2ccccc2)c1 [Compound I-219]
Data returned: center range

Data request: Please classify: O=C(NCCCn1ccnc1)c1ccc2nc(-c3ccccc3)c(N3CCS(=O)(=O)CC3)nc2c1 [Compound I-14]
Data returned: bottom range

Data request: Please classify: Cn1cncc1CCNC(=O)c1ccc2nc(N3CCOCC3)c(-c3ccc(F)cc3)nc2c1 [Compound I-177]
Data returned: center range

Data request: Please classify: CS(=O)(=O)c1cccc(-c2nc3ccc(C(=O)NCCCn4ccnc4)cc3nc2-c2ccccc2)c1 [Compound I-182]
Data returned: top range

Data request: Please classify: CN(C)c1nc2ccc(C(=O)NCCc3cncn3C)cc2nc1-c1ccc(F)cc1 [Compound I-58]
Data returned: center range

Data request: Please classify: Cn1ccc2cc(-c3nc4cc(C(=O)NCCCc5ncc[nH]5)ccc4nc3-c3ccc(F)cc3)ccc21 [Compound I-386]
Data returned: top range

Each recorded value in this set is attributed to patent US10144742B2.
